Documented In vitro potency (CRE-luciferase) low albumin EC50 across a set of binders
- tgt: human GLP-1 receptor (human, UniProt P43220 24-463)
- assay name: cell-based or functional assay
*1 amine or outer side, *2 acyl side, *3 side chain or, on linkers, in order; H or OH if unused. Where no end group is shown, it is not given here. Side-chain parts run from the residue outwards. [ ]: non-standard residue; d: D form. The star is where a group is joined. Undecanoyl(11-OPh(4-COOH)) = O=C(O)c1ccc(OCCCCCCCCCCC(=O)*)cc1; Decanoyl(10-(4-HOOC-PhO)) = O=C(O)c1ccc(OCCCCCCCCCC(=O)*)cc1; γGlu = O=C(O)[C@H](CCC(=O)[*:2])N[*:1]; εLys = N[C@@H](CCCCN[*:1])C(=O)[*:2]; 13‑carboxytridecanoyl = C14 diacid; AEEA = NCCOCCOCC(=O)O; Aib = CC(C)(N)C(=O)O
// return numeric value only (unit: pM, not printed)

The cases that follow already have their In vitro potency (CRE-luciferase) low albumin EC50 on record.
# binder, result
records = [
    ("XXEGTFTSDVSSYLEGQAAKEFIAWLVRGRK (Imp (imidazopropionyl, des-amino histidine) at 7; Aib at 8; eps-amino of Lys26 and Lys37 each acylated with 12-(4-carboxyphenoxy)dodecanoyl-gGlu-Ser-Ser-Gly-Ser-Ser-Gly)", 5.8),
    ("H[Aib]EGTFTSDVSK([Gly-Ser-Ser-Gly-Ser-Ser-Gly-Ser-Ser-Gly-Ser-Ser-γGlu-Undecanoyl(11-OPh(4-COOH))])YLEGQAAK([Gly-Ser-Ser-Gly-Ser-Ser-Gly-Ser-Ser-Gly-Ser-Ser-γGlu-Undecanoyl(11-OPh(4-COOH))])EFIAWLVQGRG", 29),
    ("HAEGTFTSDVSK([Gly-Ser-Ser-Gly-Ser-Ser-γGlu-Decanoyl(10-(4-HOOC-PhO))])YLEEQAAK([Gly-Ser-Ser-Gly-Ser-Ser-γGlu-Decanoyl(10-(4-HOOC-PhO))])EFIAWLVQGRG", 5.3),
    ("HAEGTFTSDVSSYLEGQAAK([Gly-Ser-Ser-Gly-Ser-Ser-γGlu-Decanoyl(10-(4-HOOC-PhO))])EFIAWLVRGRK([Gly-Ser-Ser-Gly-Ser-Ser-γGlu-Decanoyl(10-(4-HOOC-PhO))])E", 8),
    ("HXEGTFTSDVSSYLEGQAAKEFIAWLVRGRK (Aib at 8; eps-amino of Lys26 and Lys37 each acylated with 12-(4-carboxyphenoxy)dodecanoyl-gGlu-Ser-Ser-Gly-Ser-Ser-Gly)", 5.2),
    ("H[Aib]EGTFTSDVSK([εLys-Gly-Ser-Ser-Gly-Ser-Ser-Gly-Ser-Ser-Gly-Ser-Ser-Gly-Ser-Ser-Gly-Ser-Ser-γGlu-Undecanoyl(11-OPh(4-COOH))])YLEGQAAK([εLys-Gly-Ser-Ser-Gly-Ser-Ser-Gly-Ser-Ser-Gly-Ser-Ser-Gly-Ser-Ser-Gly-Ser-Ser-γGlu-Undecanoyl(11-OPh(4-COOH))])EFIAWLVQGRG", 47),
]

[in] Specify measured In vitro potency (CRE-luciferase) low albumin EC50 for HXEGTFTSDVSSYLEGQAAKEFIAHLVQGRK (Aib at 8; eps-amino of Lys26 and Lys37 each acylated with 10-(4-carboxyphenoxy)decanoyl-gGlu-Ser-Ser-Gly-Ser-Ser-Gly) .
[out] 23

[in] Fill in In vitro potency (CRE-luciferase) low albumin EC50 for record H[Aib]EGTFTSDVSK([AEEA-AEEA-γGlu-13‑carboxytridecanoyl])YLEEQAVREFIAK([AEEA-AEEA-γGlu-13‑carboxytridecanoyl])LVRGRG [Comparative compound of Example 6a: Compound of Example 74, Chem. 93, in WO 2012/062803]
[out] 62

[in] Provide In vitro potency (CRE-luciferase) low albumin EC50 value for the following binder: HXEGTFTSDVSSYLEGQAAKEFIAWLVHGRK (Aib at 8; eps-amino of Lys26 and Lys37 each acylated with 13-carboxytridecanoyl-gGlu-Ser-Ser-Gly-Ser-Ser-Gly)
[out] 9.8
